# experimental.target: synthetic oligopeptide, Peptide 7, EK(Fmoc)GK(Fmoc)EGGC
# experiment: Binding of doxorubicin by synthetic oligopeptide, absorbance titration
# test.context: pH 7.0 0.1M phosphate buffer; 1,3 spacing of aromatic side chains
assay.metric: Kd (µM)
Answers are plain numbers, in µM.

For record COc1cccc2c1C(=O)c1c(O)c3c(c(O)c1C2=O)C[C@@](O)(C(=O)CO)C[C@@H]3O[C@H]1C[C@H](N)[C@H](O)[C@H](C)O1 the listed Kd is 280
